Below, each entry is listed alongside its reported Percent inhibition of human Factor XI mRNA levels.
Tested on: human Factor XI mRNA
ASSAY TEXT: Antisense inhibition in HepG2 cells by microwalk gapmers, 8,000 nM, electroporation (Example 14)
Assay type: cell-based
EXPERIMENTAL CONDITIONS: HepG2 cells, 8,000 nM
In the oligonucleotide strings, read from the 5' end, every base follows the letter of its sugar. An asterisk marks phosphorothioate; unmarked linkages are phosphodiester. Other units and linkages are bracketed, terminal groups are in braces. A string of capitals states the bases alone. e = 2'-O-(2-methoxyethyl) (MOE); [5mC] = 5-methylcytosine; d = 2'-deoxy (DNA)
Give the number; % is assumed, so skip it.

# count of solved cases: 10
[
  {
    "SUBSTANCE": "445504 (antisense eG*eG*e[5mC]*eA*eT*eT*dG*dG*dT*dG*d[5mC]*dA*d[5mC]*dA*eG*eT*eT*eT*e[5mC]*eT) [compound 445504]",
    "VALUE MEASURED": 87
  },
  {
    "SUBSTANCE": "416862 (antisense eA*eG*e[5mC]*eG*eG*dA*d[5mC]*dG*dG*d[5mC]*dA*dT*dT*dG*dG*eT*eG*e[5mC]*eA*e[5mC]) [compound 416862]",
    "VALUE MEASURED": 89
  },
  {
    "SUBSTANCE": "445528 (antisense eA*eT*eT*eG*eG*dT*dG*d[5mC]*dA*d[5mC]*dA*dG*dT*eT*eT*e[5mC]*eT*eG) [compound 445528]",
    "VALUE MEASURED": 73
  },
  {
    "SUBSTANCE": "445527 (antisense eT*eT*eG*eG*eT*dG*d[5mC]*dA*d[5mC]*dA*dG*dT*dT*eT*e[5mC]*eT*eG*eG) [compound 445527]",
    "VALUE MEASURED": 70
  },
  {
    "SUBSTANCE": "445494 (antisense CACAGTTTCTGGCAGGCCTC; 6-8-6 gapmer chemistry, chemistry not fully specified) [compound 445494]",
    "VALUE MEASURED": 85
  },
  {
    "SUBSTANCE": "445529 (antisense e[5mC]*eA*eT*eT*eG*dG*dT*dG*d[5mC]*dA*d[5mC]*dA*dG*eT*eT*eT*e[5mC]*eT) [compound 445529]",
    "VALUE MEASURED": 85
  },
  {
    "SUBSTANCE": "445524 (antisense eG*eT*eG*e[5mC]*eA*d[5mC]*dA*dG*dT*dT*dT*d[5mC]*dT*eG*eG*e[5mC]*eA*eG) [compound 445524]",
    "VALUE MEASURED": 75
  },
  {
    "SUBSTANCE": "412206 (antisense e[5mC]*e[5mC]*eG*eT*eG*d[5mC]*dA*dT*d[5mC]*dT*dT*dT*d[5mC]*dT*dT*eG*eG*e[5mC]*eA*eT) [compound 412206]",
    "VALUE MEASURED": 91
  },
  {
    "SUBSTANCE": "445531 (antisense eG*eG*e[5mC]*eA*eT*dT*dG*dG*dT*dG*d[5mC]*dA*d[5mC]*eA*eG*eT*eT*eT) [compound 445531]",
    "VALUE MEASURED": 90
  },
  {
    "SUBSTANCE": "445540 (antisense eG*e[5mC]*eA*eG*e[5mC]*dG*dG*dA*d[5mC]*dG*dG*d[5mC]*dA*eT*eT*eG*eG*eT) [compound 445540]",
    "VALUE MEASURED": 74
  }
]

Query 445502 (antisense e[5mC]*eA*eT*eT*eG*eG*dT*dG*d[5mC]*dA*d[5mC]*dA*dG*dT*eT*eT*e[5mC]*eT*eG*eG) [compound 445502] yields Percent inhibition of human Factor XI mRNA levels of 83

Record 445532 (antisense e[5mC]*eG*eG*e[5mC]*eA*dT*dT*dG*dG*dT*dG*d[5mC]*dA*e[5mC]*eA*eG*eT*eT) [compound 445532] , field Percent inhibition of human Factor XI mRNA levels: 89

// recorded Percent inhibition of human Factor XI mRNA levels for 445500 (antisense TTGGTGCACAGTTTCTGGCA; 6-8-6 gapmer chemistry, chemistry not fully specified) [compound 445500] : 81

For this substance ( 416861 (antisense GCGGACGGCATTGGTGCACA; 5-10-5 gapmer, wing sugar chemistry not given here, further chemistry not given here) [compound 416861] ), measured Percent inhibition of human Factor XI mRNA levels is 90

Per the record, 416867 (antisense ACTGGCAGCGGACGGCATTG; 5-10-5 gapmer, wing sugar chemistry not given here, further chemistry not given here) [compound 416867] has Percent inhibition of human Factor XI mRNA levels of 85

Query 445496 (antisense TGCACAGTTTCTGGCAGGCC; 6-8-6 gapmer chemistry, chemistry not fully specified) [compound 445496] yields Percent inhibition of human Factor XI mRNA levels of 87

Just so you know, measured Percent inhibition of human Factor XI mRNA levels for 445541 (antisense eG*eG*e[5mC]*eA*eG*d[5mC]*dG*dG*dA*d[5mC]*dG*dG*d[5mC]*eA*eT*eT*eG*eG) [compound 445541] came out at 80

Recorded Percent inhibition of human Factor XI mRNA levels (substance 445526 (antisense eT*eG*eG*eT*eG*d[5mC]*dA*d[5mC]*dA*dG*dT*dT*dT*e[5mC]*eT*eG*eG*e[5mC]) [compound 445526] ): 81

Percent inhibition of human Factor XI mRNA levels in this record for 445537 (antisense eG*e[5mC]*eG*eG*eA*d[5mC]*dG*dG*d[5mC]*dA*dT*dT*dG*eG*eT*eG*e[5mC]*eA) [compound 445537] : 78

Record 445522 (antisense eG*e[5mC]*eA*e[5mC]*eA*dG*dT*dT*dT*d[5mC]*dT*dG*dG*e[5mC]*eA*eG*eG*e[5mC]) [compound 445522] , field Percent inhibition of human Factor XI mRNA levels: 91

Percent inhibition of human Factor XI mRNA levels reported for this substance 445520 (antisense eA*e[5mC]*eA*eG*eT*dT*dT*d[5mC]*dT*dG*dG*d[5mC]*dA*eG*eG*e[5mC]*e[5mC]*eT) [compound 445520] : 82

// recorded Percent inhibition of human Factor XI mRNA levels for 416849 (antisense eG*e[5mC]*eA*e[5mC]*eA*dG*dT*dT*dT*d[5mC]*dT*dG*dG*d[5mC]*dA*eG*eG*e[5mC]*e[5mC]*eT) [compound 416849] : 88

* * *

ASSAY TEXT: Tolerability in CD1 mice: liver function (Example 21)
Assay type: in vivo
Design: unit not given here
EXPERIMENTAL CONDITIONS: plasma, 50 mg/kg s.c. twice per week for 6 weeks
ENDPOINT NAME: Albumin

[
  {
    "CHAIN": "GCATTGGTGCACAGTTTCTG (antisense; all C 5-methyl, all phosphorothioate, sugars by position not given here; MOE gapmer, 5-10-5) [ISIS 412224, 5-10-5 MOE gapmer]",
    "VALUE MEASURED": 3.4
  }
]

For this sequence ( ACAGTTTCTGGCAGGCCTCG (antisense; all C 5-methyl, all phosphorothioate, sugars by position not given here; MOE gapmer, 5-10-5) [ISIS 412223, 5-10-5 MOE gapmer] ), measured Albumin is 3.0

What the record says about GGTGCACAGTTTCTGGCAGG (all C 5-methyl, all phosphorothioate, sugars by position not given here; MOE gapmer) [ISIS 413481, 5-10-5 MOE gapmer] : Albumin is 3.2

Albumin measured on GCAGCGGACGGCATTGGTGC (antisense; all C 5-methyl, all phosphorothioate, sugars by position not given here; MOE gapmer, 5-10-5) [ISIS 412225, 5-10-5 MOE gapmer] = 3.3

Lab note: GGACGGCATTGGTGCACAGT (antisense; all C 5-methyl, all phosphorothioate, sugars by position not given here; MOE gapmer, 5-10-5) [ISIS 413482, 5-10-5 MOE gapmer] gave Albumin of 3.0

* * *

Test system: Factor XI protein
ASSAY TEXT: Cynomolgus monkeys: plasma Factor XI protein ELISA (Example 29)
Format: in vivo
EXPERIMENTAL CONDITIONS: escalating doses 5, 10, 25 mg/kg s.c., day 22
In the oligonucleotide strings, read from the 5' end, every base follows the letter of its sugar. An asterisk marks phosphorothioate; unmarked linkages are phosphodiester. Other units and linkages are bracketed, terminal groups are in braces. A string of capitals states the bases alone. e = 2'-O-(2-methoxyethyl) (MOE); [5mC] = 5-methylcytosine; d = 2'-deoxy (DNA)
Reported Inhibition of Factor XI protein relative to the PBS control values for a set of substances

Previously resolved entries follow.
[
  {
    "SUBSTANCE": "ISIS 417002: gapmer of Table 8 (antisense eG*eG*dT*dG*d[5mC]*dA*d[5mC]*dA*dG*dT*dT*dT*d[5mC]*dT*dG*eG*e[5mC]*eA*eG*eG)",
    "EXPERIMENTAL SYSTEM": "Factor XI protein",
    "VALUE MEASURED": "2%"
  },
  {
    "SUBSTANCE": "ISIS 416858: gapmer of Table 8 (antisense eA*e[5mC]*eG*eG*e[5mC]*dA*dT*dT*dG*dG*dT*dG*d[5mC]*dA*d[5mC]*eA*eG*eT*eT*eT)",
    "EXPERIMENTAL SYSTEM": "Factor XI protein",
    "VALUE MEASURED": "23%"
  },
  {
    "SUBSTANCE": "ISIS 416850: gapmer of Table 8 (antisense eT*eG*e[5mC]*eA*e[5mC]*dA*dG*dT*dT*dT*d[5mC]*dT*dG*dG*d[5mC]*eA*eG*eG*e[5mC]*e[5mC])",
    "EXPERIMENTAL SYSTEM": "Factor XI protein",
    "VALUE MEASURED": "11%"
  },
  {
    "SUBSTANCE": "ISIS 416838: gapmer of Table 6 (antisense eG*e[5mC]*eA*eA*e[5mC]*d[5mC]*dG*dG*dG*dA*dT*dG*dA*dT*dG*eA*eG*eT*eG*e[5mC])",
    "EXPERIMENTAL SYSTEM": "Factor XI protein",
    "VALUE MEASURED": "5%"
  }
]

Continue with the substance presented below.
So, ISIS 416864: gapmer of Table 8 (antisense eG*eG*e[5mC]*eA*eG*d[5mC]*dG*dG*dA*d[5mC]*dG*dG*d[5mC]*dA*dT*eT*eG*eG*eT*eG) ? Its Inhibition of Factor XI protein relative to the PBS control was 7%
